assay_text: growth inhibitors of H69AR lung tumor, primary screen, human, duplicate replicates (AID 580)
recorded_conditions: H69AR lung tumor cells viability, ATP luminescence, 72 h; at 10 µM; hits give low values
# note: exactly 90% is not below, so it is Condition not met; use Condition met for viability strictly under it

>>> df
                                   compound        label_value
0  N#Cc1cc2ccccc2nc1SCC(=O)Nc1ccccc1N1CCOCC1      Condition met
1           CCc1ccc2oc(-c3cc(N)ccc3Cl)nc2c1      Condition met
2  CCC(C)(C(=O)NC1CCCC1)N(Cc1cccs1)C(=O)Cc1cccs1 (stereo unspecified)  Condition not met
3       NC(=O)c1cc(-c2ccccc2)nc(N2CCOCC2)n1      Condition met
4  Cc1cccc(C)c1OCC(=O)Nc1cccc(NC(=O)c2ccco2)c1      Condition met
5  O=C(NCC1CCCO1)c1cc(-c2ccncc2)nc2ccc(S(=O)(=O)N3CCOCC3)cc12 (stereo unspecified)  Condition not met
6                   NC(N)=NC(N)=NCCc1ccccc1  Condition not met
7  CCCCc1c(O)nc(N2CCN(Cc3ccccc3)CC2)[nH]c1=O  Condition not met
